# pIC50 per record follows
Biological target: c-Raf (Homo sapiens, UniProt P04049)
Sequence (P04049 whole entry): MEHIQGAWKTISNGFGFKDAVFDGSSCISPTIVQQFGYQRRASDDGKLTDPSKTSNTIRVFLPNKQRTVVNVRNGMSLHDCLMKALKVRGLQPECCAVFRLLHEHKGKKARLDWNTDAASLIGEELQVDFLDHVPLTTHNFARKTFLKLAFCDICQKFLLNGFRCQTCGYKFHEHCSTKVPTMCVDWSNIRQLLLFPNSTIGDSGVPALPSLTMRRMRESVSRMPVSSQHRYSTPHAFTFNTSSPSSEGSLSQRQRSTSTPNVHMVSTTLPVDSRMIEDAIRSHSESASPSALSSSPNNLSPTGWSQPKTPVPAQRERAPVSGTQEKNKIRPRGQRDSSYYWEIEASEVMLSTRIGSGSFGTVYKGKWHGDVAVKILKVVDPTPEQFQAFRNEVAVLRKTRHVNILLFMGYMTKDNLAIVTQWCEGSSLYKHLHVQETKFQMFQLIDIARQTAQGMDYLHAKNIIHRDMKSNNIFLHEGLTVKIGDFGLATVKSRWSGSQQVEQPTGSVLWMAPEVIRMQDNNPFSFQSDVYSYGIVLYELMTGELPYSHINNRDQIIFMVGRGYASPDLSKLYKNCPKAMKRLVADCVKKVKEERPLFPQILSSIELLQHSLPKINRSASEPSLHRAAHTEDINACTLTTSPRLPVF
Assay: Luciferase-coupled chemiluminescence kinase assay (ATP consumption), c-Raf
Format: biochemical
Settings: read-out: cRaf-1 IC50
pIC50: −log10 of the molar value.

>  <Compound>
COC(=O)Nc1nc2cc(C3(O)c4ccccc4C(=O)N3Cc3cccc(I)c3)ccc2[nH]1 (centres unmarked)

>  <pIC50>
6.00 to 7.00

$$$$
>  <Compound>
COCCOC(=O)Nc1nc2cc(C3(O)c4ccccc4C(=O)N3Cc3ccccc3)ccc2[nH]1 (centres unmarked)

>  <pIC50>
> 7.00

$$$$
>  <Compound>
COC(=O)Nc1nc2ccc(C3(O)c4ccccc4C(=O)N3c3ccc(Cl)c(Cl)c3F)cc2[nH]1 (centres unmarked)

>  <pIC50>
> 7.00

$$$$
>  <Compound>
COC(=O)Nc1nc2cc(C3(O)c4ccccc4C(=O)N3Cc3cccc(C)c3)ccc2[nH]1 (centres unmarked)

>  <pIC50>
> 7.00

$$$$
>  <Compound>
COC(=O)Nc1nc2cc(C3(O)c4ccccc4C(=O)N3c3cccc(N(C)c4ccccc4)c3)ccc2[nH]1 (centres unmarked)

>  <pIC50>
> 7.00

$$$$
>  <Compound>
COc1ccc(Cl)cc1N1C(=O)c2ccccc2C1(O)c1ccc2c(c1)NC(=O)CO2 (centres unmarked)

>  <pIC50>
≤ 5.00

$$$$
>  <Compound>
O=C(Nc1nc2cc(C3(O)c4ccccc4C(=O)N3Cc3ccccc3)ccc2[nH]1)OCC1CCOC1 (centres unmarked)

>  <pIC50>
> 7.00

$$$$
>  <Compound>
O=C(Nc1nc2cc(C3(O)c4ccccc4C(=O)N3Cc3ccccc3)ccc2[nH]1)OC1CCNCC1 (centres unmarked)

>  <pIC50>
> 7.00

$$$$
>  <Compound>
CN(C)C(=O)Nc1nc2cc(C3(O)c4ccccc4C(=O)N3Cc3ccccc3)ccc2[nH]1 (centres unmarked)

>  <pIC50>
> 7.00

$$$$
>  <Compound>
COC(=O)Nc1nc2ccc(C3(O)c4ccccc4C(=O)N3Cc3ccccc3)cc2n1C (centres unmarked)

>  <pIC50>
≤ 5.00

$$$$
>  <Compound>
COC(=O)Nc1nc2cc(C3(O)c4ccccc4C(=O)N3c3cccc(Br)c3)ccc2[nH]1 (centres unmarked)

>  <pIC50>
> 7.00

$$$$
>  <Compound>
COC(=O)Nc1nc2cc(C3(O)c4ccccc4C(=O)N3c3ccc(F)cc3)ccc2[nH]1 (centres unmarked)

>  <pIC50>
> 7.00

$$$$
>  <Compound>
COC(=O)Nc1nc2cc(C3(O)c4ccccc4C(=O)N3c3ccc(F)c(Cl)c3)ccc2[nH]1 (centres unmarked)

>  <pIC50>
> 7.00

$$$$
>  <Compound>
O=C1COc2ccc(C3(O)c4ccccc4C(=O)N3Cc3cccc(C(F)(F)F)c3)cc2N1 (centres unmarked)

>  <pIC50>
≤ 5.00

$$$$
>  <Compound>
O=C(Nc1nc2cc(C3(O)c4ccccc4C(=O)N3Cc3ccccc3)ccc2[nH]1)OCC1CCNCC1 (centres unmarked)

>  <pIC50>
6.00 to 7.00

$$$$
>  <Compound>
Nc1nc2cc(C3(O)c4ccccc4C(=O)N3Cc3ccccc3)ccc2[nH]1 (centres unmarked)

>  <pIC50>
5.00 to 6.00

$$$$
>  <Compound>
COC(=O)Nc1nc2cc(C3(O)c4ccccc4C(=O)N3Cc3cccc(OC)c3)ccc2[nH]1 (centres unmarked)

>  <pIC50>
6.00 to 7.00

$$$$
>  <Compound>
COC(=O)Nc1nc2cc(C3(O)c4ccccc4C(=O)N3c3c(F)cccc3F)ccc2[nH]1 (centres unmarked)

>  <pIC50>
> 7.00

$$$$
>  <Compound>
COC(=O)Nc1nc2cc(C3(O)c4ccccc4C(=O)N3c3cccc(C(=O)c4ccccc4)c3)ccc2[nH]1 (centres unmarked)

>  <pIC50>
6.00 to 7.00

$$$$
>  <Compound>
COC(=O)Nc1nc2cc(C3(O)c4ccccc4C(=O)N3c3ccccc3Cl)ccc2[nH]1 (centres unmarked)

>  <pIC50>
> 7.00

$$$$
>  <Compound>
O=C1COc2ccc(C3(O)c4ccccc4C(=O)N3c3cccc(OCc4ccccc4)c3)cc2N1 (centres unmarked)

>  <pIC50>
≤ 5.00

$$$$
>  <Compound>
N#Cc1cccc(N2C(=O)c3ccccc3C2(O)c2ccc3c(c2)NC(=O)CO3)c1 (centres unmarked)

>  <pIC50>
5.00 to 6.00

$$$$
>  <Compound>
COC(=O)Nc1nc2ccc(C3(O)c4cc(Cl)c(Cl)cc4C(=O)N3c3cccc(Br)c3)cc2[nH]1 (centres unmarked)

>  <pIC50>
5.00 to 6.00

$$$$
>  <Compound>
O=C1COc2ccc(C3(O)c4ccccc4C(=O)N3c3cccc(CO)c3)cc2N1 (centres unmarked)

>  <pIC50>
5.00 to 6.00

$$$$
>  <Compound>
COC(=O)Nc1nc2cc(C3(O)c4ccccc4C(=O)N3c3cccc(C(C)=O)c3)ccc2[nH]1 (centres unmarked)

>  <pIC50>
> 7.00

$$$$
>  <Compound>
O=C1COc2ccc(C3(O)c4ccccc4C(=O)N3c3cc(Cl)cc(Cl)c3)cc2N1 (centres unmarked)

>  <pIC50>
5.00 to 6.00

$$$$
>  <Compound>
COC(=O)Nc1nc2cc(C3(O)c4ccccc4C(=O)N3C(C)c3ccc(Br)s3)ccc2[nH]1 (centres unmarked)

>  <pIC50>
> 7.00

$$$$
>  <Compound>
CNC(=O)Nc1nc2cc(C3(O)c4ccccc4C(=O)N3Cc3ccccc3)ccc2[nH]1 (centres unmarked)

>  <pIC50>
> 7.00

$$$$
>  <Compound>
COC(=O)Nc1nc2cc(C(=O)c3ccccc3C(=O)OCc3ccccc3)ccc2[nH]1

>  <pIC50>
6.00 to 7.00

$$$$
>  <Compound>
O=C(Nc1nc2ccc(C3(O)c4ccccc4C(=O)N3Cc3ccccc3)cc2[nH]1)C1CC1(F)F (centres unmarked)

>  <pIC50>
> 7.00

$$$$
>  <Compound>
CC1(C)OC[C@@H](COC(=O)Nc2nc3cc(C4(O)c5ccccc5C(=O)N4Cc4ccccc4)ccc3[nH]2)O1 (some centres unmarked)

>  <pIC50>
> 7.00

$$$$
>  <Compound>
COC(=O)Nc1nc2cc(C3(O)c4ccccc4C(=O)N3c3cccc(Oc4ccccc4)c3)ccc2[nH]1 (centres unmarked)

>  <pIC50>
> 7.00

$$$$
